# Assay system: LRO4
# Protocol notes: phage ELISA, coated LRO4
Bridges are numbered along the chain shown (N, C = ends). Where no end group is shown, it is not given here.
Property name: OD (binding of phages to LR04) (OD)
Numbers only, in OD.

INSERT INTO measurements (binder, property_name, measured_result) VALUES
  ('ACDWAPHFTCGGGS (peptide, not shown: large carriers, disulfide 2-10; also: C-terminus fused to phage pIII) [phage clone Cb2]', 'OD (binding of phages to LR04)', 1),
  ('HSLSNIQMATLAGGGS (peptide, not shown: large carriers) [phage clones M10, G8]', 'OD (binding of phages to LR04)', 1.16),
  ('ACNNSNMPLCGGGS (peptide, not shown: large carriers, disulfide 2-10; also: C-terminus fused to phage pIII) [phage clone Cb10]', 'OD (binding of phages to LR04)', 0.6),
  ('ACNNYNMPLCGGGS (peptide, not shown: large carriers, disulfide 2-10; also: C-terminus fused to phage pIII) [phage clone Cb589]', 'OD (binding of phages to LR04)', 0.8),
  ('HRMTNAMHHFMGGGGS (peptide, not shown: large carriers) [phage clone A38]', 'OD (binding of phages to LR04)', 0.64);

Would you be so kind as to report OD (binding of phages to LR04) for each listed record?
1. DYTNSVSMRYLSGGGS (peptide, not shown: large carriers) [phage clone M36]
2. ACNNWNMPLCGGGS (peptide, not shown: large carriers, disulfide 2-10; also: C-terminus fused to phage pIII) [phage clones Ca1, Ca7]
3. HSWSNYWGHQHAGGGS (peptide, not shown: large carriers) [phage clone A32]
4. NSRTNNSQWTFQGGGS (peptide, not shown: large carriers) [phage clone A34]
5. ESWTNSWAMYFGGGGS (peptide, not shown: large carriers) [phage clone M2]
6. TAVTNSMMERLWGGGS (peptide, not shown: large carriers) [phage clone M8]

Solution:
1.47
0.8
0.98
0.82
1.17
1.57

Would you be so kind as to report OD (binding of phages to LR04) for each listed record?
1. ACKNSXQPLCGGGS (peptide, not shown: large carriers, disulfide 2-10; not fully specified; X: residue not identified in the source) [phage clone Ca4]
2. HQLSNKDEQTPQGGGS (peptide, not shown: large carriers) [phage clone A33]

Solution:
1. 0.9
2. 0.63
